From: the supplement of paper PMC11451515

Give cell viability for every item shown.
# System: P12-Ichikawa
# protocol: cell viability relative to DMSO control; higher = less cytotoxic
# applied conditions: HPLM + 10% dialyzed FBS; 48 h; 0.00702 µM
Numbers only, in %.

Return reported cell viability. Input molecule: "O=C(NCCCNc1nc(Nc2cccc(NC(=O)N3CCCC3)c2)ncc1I)c1cccs1"
93

Return reported cell viability. Input molecule: O=P1(N(CCCl)CCCl)NCCCO1 (stereo unspecified)
115

Return reported cell viability. Input molecule: "Cc1ccc(NC(=O)Nc2cc(C(F)(F)F)ccc2F)cc1Nc1ccc2c(c1)NC(=O)/C2=C\c1ccc[nH]1"
133

Return reported cell viability. Input molecule: "CCNC(=O)Nc1ccc(-c2nc3c(c(N4CCOC[C@@H]4C)n2)CCN(C2COC2)C3)cc1"
113

Return reported cell viability. Input molecule: "C=CC(=O)Nc1cccc(Oc2nc(Nc3ccc(N4CCN(C)CC4)cc3OC)ncc2Cl)c1"
78.4

Return reported cell viability. Input molecule: "FC1=CC=C(CN2\C=C/C=C(/C(=O)N[C@@H](COC3=CC4=C(NC(=O)N4)C=C3)C5=CC=CC=C5)C2=O)C=C1F"
98.9

Give cell viability for each listed item.
1. Clc1ccccc1C(c1ccccc1)(c1ccccc1)n1cccn1
2. CCN1\C=C(C(O)=O)/C(=O)C2=C1C=C(N3CCN(C)CC3)C(=C2)F
3. CCC(=O)OC1CCC2C3CCC/4=C/C(=O)CC[C@@]4(C)C3CC[C@]12C (stereo partly specified)
4. C=C[C@H]1CN2CCC1C[C@@H]2[C@@H](O)c1ccnc2ccccc12 (stereo partly specified)
5. N#CC1(c2ccc(NC(=O)c3cccnc3NCc3ccncc3)cc2)CCCC1

119
114
126
95.9
113
